Target: ILRA (CXCR-1) (Homo sapiens, UniProt P25024)
Sequence (P25024 1-350): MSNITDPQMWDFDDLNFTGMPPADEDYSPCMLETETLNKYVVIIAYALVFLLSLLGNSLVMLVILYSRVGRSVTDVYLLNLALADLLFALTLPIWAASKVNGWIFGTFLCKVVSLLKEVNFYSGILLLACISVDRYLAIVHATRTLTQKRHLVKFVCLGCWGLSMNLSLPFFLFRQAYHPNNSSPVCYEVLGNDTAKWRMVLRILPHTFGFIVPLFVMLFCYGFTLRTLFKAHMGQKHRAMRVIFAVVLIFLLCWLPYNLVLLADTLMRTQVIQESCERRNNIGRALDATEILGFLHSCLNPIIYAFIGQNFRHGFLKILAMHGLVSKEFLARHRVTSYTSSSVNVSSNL
We begin with a simple list: items and their reported IC50.

Here are 3 compounds together with their reported answers.
compound | measured.target | measured.result
Cc1cc2c(cc1Cc1ccc(C(=O)NC[C@H]3CC[C@H](C(=O)O)CC3)o1)C(C)(C)CCC2(C)C [Compound 12] | ILRA (CXCR-1) (Homo sapiens, UniProt P25024) | > 10 µM
Cc1cc2c(cc1Cc1ccc(C(=O)NC[C@H]3CC[C@H](CNC(=N)N)CC3)o1)C(C)(C)CCC2(C)C [Compound 10] | ILRA (CXCR-1) (Homo sapiens, UniProt P25024) | 6.4 µM
Cc1cnc(CNC(=O)c2ccc(Cc3cc4c(cc3C)C(C)(C)CCC4(C)C)o2)cn1 [Compound 13] | ILRA (CXCR-1) (Homo sapiens, UniProt P25024) | > 10 µM

Turning to the following compound.
IC50 measured on COc1cccc(OC)c1NC(=O)c1ccc(Cc2cc3c(cc2C)C(C)(C)CCC3(C)C)o1 [Compound 20] = > 10 µM

====

Biological target: human GnRH receptor (Homo sapiens, UniProt P30968)
Construct: expressed in transfected cells; host or cells: HEK 293 (hGnRH-R/293, from Dr. Stuart Sealfon)
Sequence (P30968 1-328): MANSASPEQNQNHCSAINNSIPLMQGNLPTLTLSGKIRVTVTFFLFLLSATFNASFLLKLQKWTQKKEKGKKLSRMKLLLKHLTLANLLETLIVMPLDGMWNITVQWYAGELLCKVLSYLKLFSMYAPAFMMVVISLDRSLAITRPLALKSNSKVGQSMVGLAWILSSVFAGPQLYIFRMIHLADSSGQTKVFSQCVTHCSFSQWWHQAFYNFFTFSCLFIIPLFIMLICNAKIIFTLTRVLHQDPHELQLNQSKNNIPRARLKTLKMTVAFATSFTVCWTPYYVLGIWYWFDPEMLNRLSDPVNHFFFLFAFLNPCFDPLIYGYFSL
Test: Radioligand binding, 125I-GnRH-A displacement, membranes of HEK 293 cells with human GnRH receptor
Settings: 1 h, substrate remaining; 10 uM compound; closer to zero = closer to 100% inhibition; read-out: S%R 10 uM hGnRHR
# T = remaining activity at 10 µM below 30% (exclusive); F = remaining activity at 10 µM at/above 30%

See these solved cases before continuing.
structure.notation | assigned.label
Cc1cc2c(cc1Cc1ccc(C(=O)Nc3ccccc3C(=O)N3CCN(C)CC3)o1)C(C)(C)CCC2(C)C | F
Cc1cc2c(cc1Cc1ccc(C(=O)Nc3cccnc3)o1)C(C)(C)CCC2(C)C | T
CSc1ccccc1NC(=O)c1ccc(Cc2cc3c(cc2C)C(C)(C)CCC3(C)C)o1 | T
COc1ccccc1NC(=O)c1ccc(Cc2cc3c(cc2C)C(C)(C)CCC3(C)C)o1 | T
Cc1cc2c(cc1Cc1ccc(C(=O)Nc3ccccc3CO)o1)C(C)(C)CCC2(C)C | T

(Q) Hello, is remaining activity at 10 µM of the following molecule strictly smaller than 30%? CCc1cccc(C)c1NC(=O)c1ccc(Cc2cc3c(cc2C)C(C)(C)CCC3(C)C)o1
(A) F

(Q) Is 30% strictly greater than the molecule's reported remaining activity at 10 µM? molecule: Cc1cc2c(cc1Cc1ccc(C(=O)Nc3ccc(O)c(Cl)c3)o1)C(C)(C)CCC2(C)C
(A) T

(Q) Strictly below 30%: is that where remaining activity at 10 µM of CCc1ccc(C)nc1NC(=O)c1ccc(Cc2cc3c(cc2C)C(C)(C)CCC3(C)C)o1 sits?
(A) T
